# System Name: recombinant human ALK5 (TGF-βR1) protein (Homo sapiens)
# Sequence (P36897 34-503): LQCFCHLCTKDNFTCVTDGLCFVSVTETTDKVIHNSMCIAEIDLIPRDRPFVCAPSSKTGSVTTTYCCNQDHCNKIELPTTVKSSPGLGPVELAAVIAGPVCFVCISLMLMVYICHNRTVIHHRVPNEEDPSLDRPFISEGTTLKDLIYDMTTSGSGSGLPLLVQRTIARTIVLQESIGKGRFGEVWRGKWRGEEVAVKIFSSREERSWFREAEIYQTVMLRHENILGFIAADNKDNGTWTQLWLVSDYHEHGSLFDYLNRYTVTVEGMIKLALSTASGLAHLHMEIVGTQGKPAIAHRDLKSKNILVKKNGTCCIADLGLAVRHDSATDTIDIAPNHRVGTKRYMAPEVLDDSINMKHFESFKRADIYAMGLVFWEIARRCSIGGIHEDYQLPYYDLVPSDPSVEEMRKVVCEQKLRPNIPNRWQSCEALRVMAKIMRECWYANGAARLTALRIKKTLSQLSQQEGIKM
# Experiment Description: Biochemical ALK5 (TGF-βR1) assay to measure pKi (LANCE Ultra ULight kinase assay)
# Test Parameters: apparent pKi, converted from pIC50 using the Cheng-Prusoff equation
Can you tell me Ki for the items I'm about to list?

Look over these answered cases.
Compound: CC(C)N1CC[C@@H](N(C)c2cnc3ccc(-c4c[nH]nc4-c4cc(Cl)c(F)cc4F)nc3c2)C1
System Name: recombinant human ALK5 (TGF-βR1) protein (Homo sapiens)
Ki: 0.0398 to 0.316 nM
//
Compound: CNCCn1cc(-c2cnc3ccc(-c4c[nH]nc4-c4cc(Cl)ccc4F)nc3c2)nn1
System Name: recombinant human ALK5 (TGF-βR1) protein (Homo sapiens)
Ki: 0.0398 to 0.316 nM
//
Compound: CC(C)N1CCN(CCNc2cnc3ccc(-c4c[nH]nc4-c4cccc(Cl)c4)nc3c2)CC1
System Name: recombinant human ALK5 (TGF-βR1) protein (Homo sapiens)
Ki: 0.0398 to 0.316 nM
//
Compound: Cn1cccc(-c2cnc3ccc(-c4c[nH]nc4-c4ccc(F)c(F)c4)nc3c2)c1=O
System Name: recombinant human ALK5 (TGF-βR1) protein (Homo sapiens)
Ki: 3.98 to 31.6 nM
//
Compound: CN1CCC(N(C)c2cnc3ccc(-c4c[nH]nc4-c4cc(Cl)c(F)cc4F)nc3c2)CC1
System Name: recombinant human ALK5 (TGF-βR1) protein (Homo sapiens)
Ki: 0.398 to 3.16 nM
//
Compound: Fc1ccc(Cl)cc1-c1[nH]cnc1-c1ccc2ncc(NCCN3CCCC3)cc2n1
System Name: recombinant human ALK5 (TGF-βR1) protein (Homo sapiens)
Ki: 0.0398 to 0.316 nM

Go through the list and state Ki for each entry.
1. Fc1ccc(Cl)cc1-c1n[nH]cc1-c1ccc2ncc(NCCN3CCCC3)cc2n1
2. O=C(O)[C@H]1CN(c2cnc3ccc(-c4c[nH]nc4-c4cc(Cl)c(F)cc4F)nc3c2)CCN1
3. Fc1ccc(Cl)cc1-c1n[nH]cc1-c1ccc2ncc(-c3cnc4n3CCN4)cc2n1
4. OCCn1cc(-c2cnc3ccc(-c4c[nH]nc4-c4ccc(F)c(F)c4)nc3c2)cn1
5. Fc1ccc(Cl)cc1-c1n[nH]cc1-c1ccc2ncc(NCC3CCCNC3)cc2n1 (stereo not shown)
6. COC(=O)c1cnc2ccc(-c3[nH]nnc3-c3ccccc3F)nc2c1
7. C[C@@H]1CN(c2cnc3ccc(-c4c[nH]nc4-c4cc(Cl)ccc4F)nc3c2)[C@H](C)CN1C (racemic)

[reply]
1: 0.0398 to 0.316 nM; 2: 0.398 to 3.16 nM; 3: ≤ 0.0316 nM; 4: 0.0398 to 0.316 nM; 5: 0.398 to 3.16 nM; 6: 3.98 to 31.6 nM; 7: 3.98 to 31.6 nM

Go through the list and state Ki for each entry.
1. Fc1ccc(Cl)cc1-c1n[nH]cc1-c1ccc2ncc(N[C@@H]3CCNC3)cc2n1
2. Fc1ccc(Cl)cc1-c1[nH]cnc1-c1ccc2ncc(-c3cc4n(n3)CCNC4)cc2c1
3. C[C@@H]1CN(CCNc2cnc3ccc(-c4c[nH]nc4-c4cc(Cl)c(F)cc4F)nc3c2)C[C@H](C)N1
4. COC(=O)N1CCc2nnc(-c3cnc4ccc(-c5c[nH]nc5-c5cc(Cl)ccc5F)nc4c3)cc2C1
5. CC(C)N1CCN(CCNc2cnc3ccc(-c4c[nH]nc4-c4cc(Cl)ccc4F)cc3c2)CC1
6. CNC1CN(c2cnc3ccc(-c4c[nH]nc4-c4cc(Cl)ccc4F)nc3c2)C1
7. COCc1cccc(-c2[nH]cnc2-c2ccc3ncc(NCCN4CCNCC4)cc3n2)c1

[reply]
1: 0.398 to 3.16 nM; 2: 0.0398 to 0.316 nM; 3: 0.0398 to 0.316 nM; 4: 0.0398 to 0.316 nM; 5: 0.398 to 3.16 nM; 6: 0.0398 to 0.316 nM; 7: 3.98 to 31.6 nM
